target: Recombinant human cathepsin A (Homo sapiens, UniProt P10619); construct: Recombinant human cathepsin A (residues 29-480, with a C-terminal 10-His tag); 10-His (C); purchased R&D Systems 1049-SE; test: Cathepsin A inhibitory activity; type: biochemical; settings: recombinant human cathepsin A; read-out: Activity (2): Cathepsin A inhibitory activity, IC50 class
Sequence (P10619 29-312 limits assumed): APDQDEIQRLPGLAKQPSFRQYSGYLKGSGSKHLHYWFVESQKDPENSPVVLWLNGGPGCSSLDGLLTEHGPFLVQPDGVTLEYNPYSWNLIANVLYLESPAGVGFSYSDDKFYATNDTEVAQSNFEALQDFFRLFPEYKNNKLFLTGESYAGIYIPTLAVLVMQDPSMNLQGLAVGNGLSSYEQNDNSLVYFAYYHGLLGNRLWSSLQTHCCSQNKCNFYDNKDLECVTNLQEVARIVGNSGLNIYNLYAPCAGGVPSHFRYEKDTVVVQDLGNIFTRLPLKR
Sequence (P10619 327-480 limits assumed): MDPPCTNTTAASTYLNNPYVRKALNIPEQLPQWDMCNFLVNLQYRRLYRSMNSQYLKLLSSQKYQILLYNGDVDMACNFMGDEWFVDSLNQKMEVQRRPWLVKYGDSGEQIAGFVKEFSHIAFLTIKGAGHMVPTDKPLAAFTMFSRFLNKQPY
pIC50: −log10 of the molar value.
Endpoint Name: pIC50

Illustrative cases are given below, each with its answer.
Compound: COc1cccc(F)c1C(CC(=O)O)NC(=O)c1cc(O)n(-c2ccc(Cl)cc2)n1 (centres unmarked) [Example 469]
pIC50: 6.00 to 7.00
--
Compound: O=C(O)CC(NC(=O)c1cc(O)n(-c2cccc(F)c2)n1)c1cc(F)ccc1F (centres unmarked) [Example 485]
pIC50: 6.00 to 7.00
--
Compound: Cc1c(F)cccc1C(CC(=O)O)NC(=O)c1cc(O)n(-c2cccc(F)c2)n1 (centres unmarked) [Example 482]
pIC50: 6.00 to 7.00
--
Compound: COc1cc(C(=O)N[C@@H](CC(=O)NCc2nnn[nH]2)c2ccccc2C)nn1-c1ccccc1F [Example 928]
pIC50: 6.00 to 7.00
--
Compound: Cc1c(F)cccc1C(CC(=O)O)NC(=O)c1cc(O)n(-c2ccc(F)cc2)n1 (centres unmarked) [Example 523]
pIC50: 6.00 to 7.00

Task item: Report pIC50 on Recombinant human cathepsin A (Homo sapiens, UniProt P10619) for this entry: O=C(O)CC(NC(=O)c1cc(O)n(-c2ccccc2)n1)c1ccc(-c2ccccn2)cc1 (centres unmarked) [Example 499]
Reply: 6.00 to 7.00

Task item: Report pIC50 on Recombinant human cathepsin A (Homo sapiens, UniProt P10619) for this entry: O=C(O)CC(NC(=O)c1cc(O)n(-c2cccc(Cl)c2)n1)c1cccc2c1OC(F)(F)O2 (centres unmarked) [Example 464]
Reply: 6.00 to 7.00

Task item: Report pIC50 on Recombinant human cathepsin A (Homo sapiens, UniProt P10619) for this entry: O=C(O)CC(NC(=O)c1cc(O)n(-c2ccc(F)cc2)n1)c1ccc(Oc2ccccc2)cc1 (centres unmarked) [Example 437]
Reply: 6.00 to 7.00

Task item: Report pIC50 on Recombinant human cathepsin A (Homo sapiens, UniProt P10619) for this entry: COc1cc(C(=O)N[C@@H](CC(=O)NCC(C)C)c2ccccc2C)nn1-c1ccccc1F [Example 919]
Reply: 4.52 to 6.00

Task item: Report pIC50 on Recombinant human cathepsin A (Homo sapiens, UniProt P10619) for this entry: O=C(O)CC(NC(=O)c1cc(O)n(-c2ccc(Cl)cc2)n1)c1cc(F)ccc1Cl (centres unmarked) [Example 470]
Reply: 6.00 to 7.00

Task item: Report pIC50 on Recombinant human cathepsin A (Homo sapiens, UniProt P10619) for this entry: COC[C@H](C)NC(=O)C[C@H](NC(=O)c1cc(OC)n(-c2ccccc2F)n1)c1ccccc1C [Example 937]
Reply: > 7.00

Task item: Report pIC50 on Recombinant human cathepsin A (Homo sapiens, UniProt P10619) for this entry: O=C(O)C[C@H](NC(=O)c1cc(O)n(-c2ccc(F)cc2F)n1)c1ccccc1Cl [Example 502]
Reply: 6.00 to 7.00

Reference source for all entries: patent US8664257B2
